Biological target: human angiopoietin-2 protein (Homo sapiens, UniProt O15123)
Construct: purchased R&D Systems
Sequence (O15123 19-496): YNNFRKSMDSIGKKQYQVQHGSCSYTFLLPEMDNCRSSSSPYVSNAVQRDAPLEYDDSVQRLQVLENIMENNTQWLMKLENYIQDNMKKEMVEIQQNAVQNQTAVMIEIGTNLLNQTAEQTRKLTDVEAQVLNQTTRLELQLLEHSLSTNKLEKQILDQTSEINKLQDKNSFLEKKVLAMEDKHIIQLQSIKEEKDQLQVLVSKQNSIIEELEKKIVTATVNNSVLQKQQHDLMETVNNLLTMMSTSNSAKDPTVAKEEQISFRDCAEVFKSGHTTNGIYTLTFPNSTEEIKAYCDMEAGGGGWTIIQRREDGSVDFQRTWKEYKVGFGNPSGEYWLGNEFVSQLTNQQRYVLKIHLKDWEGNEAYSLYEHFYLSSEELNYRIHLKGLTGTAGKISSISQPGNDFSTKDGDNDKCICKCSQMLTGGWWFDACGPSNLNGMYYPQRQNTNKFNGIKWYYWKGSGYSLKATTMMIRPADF
Assay: Competitive ELISA: inhibition of Ang-2-Tie-2 binding, plates coated with Ang-2 (Table 7)
Conditions: P = targeting peptide linked to antibody h38c2 via the linker, read-out: Ang-2 P IC50
pIC50: −log10 of the molar value. Starred links: 1 amine or outer side, 2 acyl side, 3 side chain; linkers in the order of their positions; H or OH if unused. Non-standard residues stand in square brackets, D forms with d. No end group written: not given here. Phe(4-COOH) = N[C@@H](Cc1ccc(C(=O)O)cc1)C(=O)O; AcK = CC(=O)NCCCC[C@H](N[*:1])C(=O)[*:2]; 0P = not defined here
READOUT TYPE: pIC50

INSERT INTO measurements (substance, readout_type, recorded_measurement) VALUES
  ('40 (QXYQPLDELDXTXYDQFMLQQG; AcK; K(0P); thienylalanine; Anti-angiogenic peptide) [Compound 40]', 'pIC50', 6.45);

[1] 62 (Q[AcK]YQPLDE[AcK]DK(0P)TL[Phe(4-COOH)]DQFMLQQG; not fully specified (C-terminus); reading uncertain; also: 0P linker on K11, antibody h38c2 conjugate or reactive form) [Compound 62]
[2] 39 (QXYQPLDELDXTXYDQFMLQQG; AcK; K(0P); homophenylalanine; Anti-angiogenic peptide) [Compound 39]
[3] (Amido 2-PEG)QAcKY QPL DEL DK(OP)T LYD QFMLQQ G (QXYQPLDELDXTLYDQFMLQQG; amido-2-PEG cap; acetyl-lysine; OP linker at K11; Anti-angiogenic peptide) [Compound 52]
Query string: Rank entries according to their pIC50, from the largest number down. Give your ranking as a list of the labels in the requested order.
Result string: 3, 1, 2
(3: 7.74, 1: 7.38, 2: 6.59)
